B1: TCEB3B (parent)
chain: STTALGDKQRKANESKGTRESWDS

# Variants of: B1
# Assay Info: protein stability index of a GFP-peptide fusion (GPS, HEK-293T) (PSI 1-6); higher = more stable;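 further: lentivirally expressed fusions sorted by FACS into six bins by GFP to DsRed ratio, PSI derived from sequencing read proportions per bin multiplied by bin number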
# Condition Info: c terminus: a fixed tail appended
Quantity: protein stability index

[[record]]
variant_code = "L5K"
assay_value = 4.37

[[record]]
variant_code = "E20Q"
assay_value = 4.38

[[record]]
variant_code = "A4I"
assay_value = 3.65

[[record]]
variant_code = "S24L"
assay_value = 4.37

[[record]]
variant_code = "S21V"
assay_value = 4.84

[[record]]
variant_code = "R10W"
assay_value = 3.46

[[record]]
variant_code = "Q9K"
assay_value = 4.09

[[record]]
variant_code = "Q9P"
assay_value = 3.53

[[record]]
variant_code = "D7Y"
assay_value = 3

[[record]]
variant_code = "K16H"
assay_value = 4.14

[[record]]
variant_code = "R19H"
assay_value = 4.4

[[record]]
variant_code = "K11G"
assay_value = 3.88

[[record]]
variant_code = "K8T"
assay_value = 3.46

[[record]]
variant_code = "R10P"
assay_value = 4.43

[[record]]
variant_code = "L5Y"
assay_value = 3.37

[[record]]
variant_code = "R10G"
assay_value = 4.55

[[record]]
variant_code = "G6L"
assay_value = 4.08

[[record]]
variant_code = "A4W"
assay_value = 3.62

[[record]]
variant_code = "G6M"
assay_value = 3.93

[[record]]
variant_code = "S1I"
assay_value = 3.58

[[record]]
variant_code = "K16F"
assay_value = 3.8

[[record]]
variant_code = "S24T"
assay_value = 4.58

[[record]]
variant_code = "W22P"
assay_value = 5.54

[[record]]
variant_code = "D7A"
assay_value = 3.49

[[record]]
variant_code = "R19G"
assay_value = 4.68

[[record]]
variant_code = "R10Q"
assay_value = 4.56

[[record]]
variant_code = "S1M"
assay_value = 4.22

[[record]]
variant_code = "W22M"
assay_value = 5.53

[[record]]
variant_code = "E20F"
assay_value = 4.6

[[record]]
variant_code = "A4M"
assay_value = 3.54

[[record]]
variant_code = "R10F"
assay_value = 4.15

[[record]]
variant_code = "K11F"
assay_value = 3.79

[[record]]
variant_code = "T2E"
assay_value = 4.05

[[record]]
variant_code = "K8P"
assay_value = 3.96

[[record]]
variant_code = "S21K"
assay_value = 4.97

[[record]]
variant_code = "N13E"
assay_value = 4.87

[[record]]
variant_code = "S1G"
assay_value = 3.9

[[record]]
variant_code = "R10H"
assay_value = 4.24

[[record]]
variant_code = "G6R"
assay_value = 4.07

[[record]]
variant_code = "K8S"
assay_value = 4.31

[[record]]
variant_code = "S24V"
assay_value = 4.62

[[record]]
variant_code = "T18M"
assay_value = 3.51

[[record]]
variant_code = "L5W"
assay_value = 3.64

[[record]]
variant_code = "S21A"
assay_value = 5.05

[[record]]
variant_code = "A4P"
assay_value = 3.88

[[record]]
variant_code = "K8A"
assay_value = 3.83

